# system-tested: T1, Recombinant Human DLL4 (delta-like protein 4) (human, UniProt Q9NR61 27-524)
# T1 construct: Bought recombinant human DLL4 (R&D Systems Cat#1506-D4/CF); also called rHuman DLL4; Delta-like 4
# test: ELISA, DLL4 coated on plate, Fab at 25 nM (second 25 nM row)
measurement-name: ELISA signal
In your answer, state the number alone without any accompanying words.

ELISA signal reading for Fab VH1-46_IGHD6-6*01_IGHJ1*01 S102A/S103P/S104F/H111F & L6_IGKJ1*01 S31H (Fab, V domains shown, Tested as a Fab; also called APFF & S31H) VH: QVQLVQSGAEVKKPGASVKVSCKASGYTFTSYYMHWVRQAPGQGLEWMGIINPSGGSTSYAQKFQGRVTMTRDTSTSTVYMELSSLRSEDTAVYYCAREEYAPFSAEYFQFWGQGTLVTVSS VL: EIVLTQSPATLSLSPGERATLSCRASQSVSHYLAWYQQKPGQAPRLLIYDASNRATGIPARFSGSGSGTDFTLTISSLEPEDFAVYYCQQRSNWPPWTFGQGTKVEIKR : 0.03

ELISA signal reading for Fab VH1-46_IGHD6-6*01_IGHJ1*01 S102A/S103P/S104F/H111F & L6_IGKJ1*01 S28H (Fab, V domains shown, Tested as a Fab; also called APFF & S28H) VH: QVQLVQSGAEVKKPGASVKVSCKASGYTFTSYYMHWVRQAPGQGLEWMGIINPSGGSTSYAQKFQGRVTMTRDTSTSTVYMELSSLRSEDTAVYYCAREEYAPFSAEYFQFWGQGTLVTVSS VL: EIVLTQSPATLSLSPGERATLSCRASQHVSSYLAWYQQKPGQAPRLLIYDASNRATGIPARFSGSGSGTDFTLTISSLEPEDFAVYYCQQRSNWPPWTFGQGTKVEIKR : 0.03

ELISA signal reading for Fab VH1-46_IGHD6-6*01_IGHJ1*01 S102A/S103P/S104F/H111F & L6_IGKJ1*01 S28N (Fab, V domains shown, Tested as a Fab; also called APFF & S28N) VH: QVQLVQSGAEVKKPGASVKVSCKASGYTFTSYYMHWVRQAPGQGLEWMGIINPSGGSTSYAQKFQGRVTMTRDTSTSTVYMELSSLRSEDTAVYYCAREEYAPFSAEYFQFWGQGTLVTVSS VL: EIVLTQSPATLSLSPGERATLSCRASQNVSSYLAWYQQKPGQAPRLLIYDASNRATGIPARFSGSGSGTDFTLTISSLEPEDFAVYYCQQRSNWPPWTFGQGTKVEIKR : 0.05

Now take the following binder into account.
ELISA signal reading for Fab VH1-46_IGHD6-6*01_IGHJ1*01 S102A/S103P/S104F/H111F & L6_IGKJ1*01 S30D (Fab, V domains shown, Tested as a Fab; also called APFF & S30D) VH: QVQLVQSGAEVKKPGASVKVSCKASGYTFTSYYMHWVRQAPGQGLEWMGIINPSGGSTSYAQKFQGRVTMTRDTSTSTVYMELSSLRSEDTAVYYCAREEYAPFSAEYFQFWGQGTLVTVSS VL: EIVLTQSPATLSLSPGERATLSCRASQSVDSYLAWYQQKPGQAPRLLIYDASNRATGIPARFSGSGSGTDFTLTISSLEPEDFAVYYCQQRSNWPPWTFGQGTKVEIKR : 0.03

These data points were gathered from patent US20120316071A1.
